Where these numbers come from: patent US20200407449A1

A collection of binders and their measured koff
Molecular target: T1, hVISTA-Fc (R&D systems. Cat. No. 7126-B7) (human, UniProt Q9H7M9 33-194)
T1 construct: Bought antigen; also called human VISTA-Fc; VISTA-FC Human
T1 sequence: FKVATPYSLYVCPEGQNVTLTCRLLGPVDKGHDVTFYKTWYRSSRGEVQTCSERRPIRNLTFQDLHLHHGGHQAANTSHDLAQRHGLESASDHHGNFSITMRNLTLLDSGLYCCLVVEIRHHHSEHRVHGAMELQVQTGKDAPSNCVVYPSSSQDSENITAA
Test: dissociation rate constant of scFv in the screening of optimised clones; antigen not named
Field format: number, assumed s⁻¹, no unit text.

Use the examples below as a reference point.
>  <Binder>
Anti VISTA_G1 (scFv phage clone) (scFv, V domains shown, Optimised 1B8 variant that retains the 1B8 heavy-chain variable region, measured as scFv) VH: QMQLVQSGAEVKKPGSSVKVSCKASGGSSSNYAISWVRQAPGQGLEWMGGIIPIFGTTSYAQKFQGRVTITADGSMSTAYMELSSLRSEDTAVYYCAKGAIEPWPFYFDNWGQGTLVTVSS VL: QLVLTQPRSVSGSPGQSVTISCTGTNSDVGAYNYLSWYQQLPGRAPKVIIYDVNKRPSGVPDRFSGSRSGKTASLTISGLQAEDEADYYCAAWDDSLIGHVFGGGTKLTVLG

>  <koff / s⁻¹>
0.000574

$$$$
>  <Binder>
Anti VISTA_H2 (scFv phage clone) (scFv, V domains shown, Optimised 1B8 variant that retains the 1B8 heavy-chain variable region, measured as scFv) VH: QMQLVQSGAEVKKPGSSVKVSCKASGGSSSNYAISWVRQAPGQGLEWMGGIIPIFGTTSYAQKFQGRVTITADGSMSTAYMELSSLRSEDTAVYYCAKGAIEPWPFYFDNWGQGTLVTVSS VL: QLVLTQPRSVSGSPGQSVTISCTGTNSDVGAYNYLSWYQQLPGRAPKVIIYDVNKRPSGVPDRFSGSRSGKTASLTISGLQAEDEADYYCAAWDDNLNGLVFGGGTKLTVLG

>  <koff / s⁻¹>
0.000285

$$$$
>  <Binder>
1B8 monoclonal scFv phage (scFv, V domains shown, also called IB8; Anti VISTA.3.0 (1B8)) VH: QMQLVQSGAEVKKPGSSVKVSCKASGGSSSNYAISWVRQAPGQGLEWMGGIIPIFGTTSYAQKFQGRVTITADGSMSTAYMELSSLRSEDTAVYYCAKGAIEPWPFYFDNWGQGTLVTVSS VL: QLVLTQPRSVSGSPGQSVTISCTGTNSDVGAYNYLSWYQQLPGRAPKVIIYDVNKRPSGVPDRFSGSRSGKTASLTISGLQAEDEADYYCAAWDDSLNGLVFGGGTKLTVLG

>  <koff / s⁻¹>
0.000732

$$$$

Next binder, please.
Noted for Anti VISTA_B5 (scFv phage clone) (scFv, V domains shown, Optimised 1B8 light-chain CDR3 variant, measured as scFv) VH: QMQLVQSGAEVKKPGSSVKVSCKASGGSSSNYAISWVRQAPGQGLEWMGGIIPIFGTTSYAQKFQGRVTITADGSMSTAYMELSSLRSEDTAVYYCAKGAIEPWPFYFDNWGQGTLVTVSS VL: QLVLTQPRSVSGSPGQSVTISCTGTNSDVGAYNYLSWYQQLPGRAPKVIIYDVNKRPSGVPDRFSGSRSGKTASLTISGLQAEDEADYYCAAWDDDLNGLVFGGGTKLTVLG : its koff reads 0.000616
